These measurements were taken from patent US20210024639A1.

molecular target: native human MET on living human cells (human, UniProt P08581 25-1390); assay: cell-based or functional assay
Sequence (P08581 25-1390): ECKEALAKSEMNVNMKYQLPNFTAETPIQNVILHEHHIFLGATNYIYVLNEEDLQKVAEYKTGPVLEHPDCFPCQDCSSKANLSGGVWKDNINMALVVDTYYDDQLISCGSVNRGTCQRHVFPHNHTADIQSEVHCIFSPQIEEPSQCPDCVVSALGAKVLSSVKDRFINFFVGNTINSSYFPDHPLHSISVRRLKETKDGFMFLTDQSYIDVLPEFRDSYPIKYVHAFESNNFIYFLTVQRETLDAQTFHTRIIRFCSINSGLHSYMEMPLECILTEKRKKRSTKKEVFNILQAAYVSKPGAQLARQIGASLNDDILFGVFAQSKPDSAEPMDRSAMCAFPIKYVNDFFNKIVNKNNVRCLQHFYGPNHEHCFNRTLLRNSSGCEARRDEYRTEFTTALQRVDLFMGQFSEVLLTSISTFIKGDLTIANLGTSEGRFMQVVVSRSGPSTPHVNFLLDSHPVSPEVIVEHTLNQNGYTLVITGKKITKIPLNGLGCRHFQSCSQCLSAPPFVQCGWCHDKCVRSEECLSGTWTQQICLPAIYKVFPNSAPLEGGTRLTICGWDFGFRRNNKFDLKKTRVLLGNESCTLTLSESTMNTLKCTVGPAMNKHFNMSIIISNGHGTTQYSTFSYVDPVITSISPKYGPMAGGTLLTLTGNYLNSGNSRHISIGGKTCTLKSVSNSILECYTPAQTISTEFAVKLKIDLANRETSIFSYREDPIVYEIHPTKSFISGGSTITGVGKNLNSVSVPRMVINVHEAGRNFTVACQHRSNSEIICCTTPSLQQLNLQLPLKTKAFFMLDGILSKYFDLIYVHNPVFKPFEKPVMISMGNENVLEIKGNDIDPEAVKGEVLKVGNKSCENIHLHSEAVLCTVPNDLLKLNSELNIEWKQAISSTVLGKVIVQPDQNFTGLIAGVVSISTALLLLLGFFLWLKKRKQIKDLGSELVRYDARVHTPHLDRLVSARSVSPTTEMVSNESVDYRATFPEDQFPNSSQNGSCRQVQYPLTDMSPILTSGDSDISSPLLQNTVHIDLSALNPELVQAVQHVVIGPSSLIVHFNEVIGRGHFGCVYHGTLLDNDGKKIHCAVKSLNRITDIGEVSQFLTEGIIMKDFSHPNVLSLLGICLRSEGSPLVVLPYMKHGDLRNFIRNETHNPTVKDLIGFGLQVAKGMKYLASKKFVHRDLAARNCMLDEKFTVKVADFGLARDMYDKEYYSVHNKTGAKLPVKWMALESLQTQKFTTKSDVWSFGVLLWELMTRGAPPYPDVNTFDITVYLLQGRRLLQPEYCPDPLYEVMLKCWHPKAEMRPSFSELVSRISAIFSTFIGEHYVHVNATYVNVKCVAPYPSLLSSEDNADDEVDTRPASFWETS
Entries and their cell scattering score, HPAF-II, 0.012 nM
Field format: number, assumed score 0-4, no unit text.

Example entries begin here.
• chimeric llama-human IgG1 mAb 71C3 (antibody, V domains shown) VH: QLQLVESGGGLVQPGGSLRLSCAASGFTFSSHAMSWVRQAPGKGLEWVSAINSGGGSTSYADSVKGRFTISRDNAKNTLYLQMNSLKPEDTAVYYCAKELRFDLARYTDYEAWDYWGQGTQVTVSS VL: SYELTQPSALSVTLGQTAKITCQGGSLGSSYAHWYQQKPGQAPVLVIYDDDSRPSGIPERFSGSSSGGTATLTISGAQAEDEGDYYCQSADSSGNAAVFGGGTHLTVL = 0
• chimeric llama-human IgG1 mAb 71G3 (antibody, V domains shown) VH: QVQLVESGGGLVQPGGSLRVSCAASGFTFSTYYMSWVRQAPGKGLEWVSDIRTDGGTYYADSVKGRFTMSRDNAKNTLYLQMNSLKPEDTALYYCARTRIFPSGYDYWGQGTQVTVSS VL: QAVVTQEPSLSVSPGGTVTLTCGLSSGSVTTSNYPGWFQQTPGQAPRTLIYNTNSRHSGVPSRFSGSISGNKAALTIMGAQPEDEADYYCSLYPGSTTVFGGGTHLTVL = 1
• chimeric llama-human IgG1 mAb 76H10 (antibody, V domains shown) VH: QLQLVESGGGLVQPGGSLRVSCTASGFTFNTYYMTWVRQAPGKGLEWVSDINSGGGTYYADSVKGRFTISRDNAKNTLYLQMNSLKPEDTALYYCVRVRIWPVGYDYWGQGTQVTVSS VL: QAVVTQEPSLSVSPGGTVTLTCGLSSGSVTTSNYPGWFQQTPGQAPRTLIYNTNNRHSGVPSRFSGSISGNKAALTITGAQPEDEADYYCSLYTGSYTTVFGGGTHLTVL = 0
• chimeric llama-human IgG1 mAb 71G2 (antibody, V domains shown) VH: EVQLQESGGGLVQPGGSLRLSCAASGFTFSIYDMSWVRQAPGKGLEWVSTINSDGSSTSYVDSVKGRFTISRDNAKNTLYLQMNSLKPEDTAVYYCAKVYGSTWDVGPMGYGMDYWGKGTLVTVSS VL: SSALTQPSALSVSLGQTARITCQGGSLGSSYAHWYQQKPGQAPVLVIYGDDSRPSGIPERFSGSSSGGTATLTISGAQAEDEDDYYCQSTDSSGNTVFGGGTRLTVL = 2
• chimeric llama-human IgG1 mAb 71A3 (antibody, V domains shown) VH: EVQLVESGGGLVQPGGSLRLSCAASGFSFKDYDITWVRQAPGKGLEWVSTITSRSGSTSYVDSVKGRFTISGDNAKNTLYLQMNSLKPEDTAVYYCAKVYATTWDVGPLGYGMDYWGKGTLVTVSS VL: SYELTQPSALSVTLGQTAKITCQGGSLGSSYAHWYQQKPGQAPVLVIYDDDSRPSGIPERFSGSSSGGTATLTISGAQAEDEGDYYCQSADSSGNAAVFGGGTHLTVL = 2

Look up cell scattering score, HPAF-II, 0.012 nM for this binder: chimeric llama-human IgG1 mAb 76G7 (antibody, V domains shown) VH: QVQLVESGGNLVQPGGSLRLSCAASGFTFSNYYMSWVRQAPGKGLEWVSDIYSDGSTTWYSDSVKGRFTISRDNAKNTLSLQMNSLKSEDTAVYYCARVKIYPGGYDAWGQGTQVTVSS VL: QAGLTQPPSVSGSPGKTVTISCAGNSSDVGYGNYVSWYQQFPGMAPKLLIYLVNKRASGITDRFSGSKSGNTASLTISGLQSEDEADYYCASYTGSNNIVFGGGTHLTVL
0

Consider next the binder chimeric llama-human IgG1 mAb 74C8 (antibody, V domains shown) VH: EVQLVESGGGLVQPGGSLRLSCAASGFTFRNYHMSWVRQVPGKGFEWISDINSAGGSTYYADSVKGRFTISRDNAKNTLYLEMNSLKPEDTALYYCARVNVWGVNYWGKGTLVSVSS VL: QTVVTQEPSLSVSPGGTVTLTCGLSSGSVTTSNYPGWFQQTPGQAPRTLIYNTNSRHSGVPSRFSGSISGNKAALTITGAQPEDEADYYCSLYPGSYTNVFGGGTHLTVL in the same way.
0

Consider next the binder chimeric llama-human IgG1 mAb 71D4 (antibody, V domains shown) VH: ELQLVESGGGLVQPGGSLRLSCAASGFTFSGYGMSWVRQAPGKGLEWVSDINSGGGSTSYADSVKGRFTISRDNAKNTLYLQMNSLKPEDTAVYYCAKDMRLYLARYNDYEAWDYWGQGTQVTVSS VL: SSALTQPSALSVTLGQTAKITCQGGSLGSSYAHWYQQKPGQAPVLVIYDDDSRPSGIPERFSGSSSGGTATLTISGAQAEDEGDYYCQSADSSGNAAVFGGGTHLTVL in the same way.
0

Consider next the binder chimeric llama-human IgG1 mAb 71D6 (antibody, V domains shown) VH: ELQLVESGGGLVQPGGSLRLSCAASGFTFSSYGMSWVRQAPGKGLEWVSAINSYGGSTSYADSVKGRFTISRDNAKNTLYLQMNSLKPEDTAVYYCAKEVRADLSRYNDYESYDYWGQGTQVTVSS VL: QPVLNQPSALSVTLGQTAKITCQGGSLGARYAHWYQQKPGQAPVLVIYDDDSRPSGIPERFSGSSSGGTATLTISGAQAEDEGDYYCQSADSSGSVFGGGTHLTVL in the same way.
2

Consider next the binder chimeric llama-human IgG1 mAb 72F8 (antibody, V domains shown) VH: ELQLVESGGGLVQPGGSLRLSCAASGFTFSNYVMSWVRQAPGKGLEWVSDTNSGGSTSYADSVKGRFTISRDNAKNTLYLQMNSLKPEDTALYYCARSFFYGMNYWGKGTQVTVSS VL: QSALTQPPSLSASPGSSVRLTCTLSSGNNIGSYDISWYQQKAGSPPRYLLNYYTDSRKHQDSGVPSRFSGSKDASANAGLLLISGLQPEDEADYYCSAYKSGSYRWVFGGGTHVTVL in the same way.
0

Consider next the binder chimeric llama-human IgG1 mAb 71G12 (antibody, V domains shown) VH: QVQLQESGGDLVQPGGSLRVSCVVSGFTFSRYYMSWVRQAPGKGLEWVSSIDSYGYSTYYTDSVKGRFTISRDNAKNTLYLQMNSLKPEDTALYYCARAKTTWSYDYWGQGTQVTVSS VL: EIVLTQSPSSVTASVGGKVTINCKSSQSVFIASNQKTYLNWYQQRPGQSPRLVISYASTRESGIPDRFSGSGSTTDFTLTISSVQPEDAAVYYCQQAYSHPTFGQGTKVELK in the same way.
0
